- SYSTEM_UNDER_TEST: hCE2 (Homo sapiens, UniProt O00748)
- Construct: tissue Bioreclamation IVT lot no; X008067; host or cells: pooled human liver microsomes, 50 donors
- Sequence (O00748 27-559): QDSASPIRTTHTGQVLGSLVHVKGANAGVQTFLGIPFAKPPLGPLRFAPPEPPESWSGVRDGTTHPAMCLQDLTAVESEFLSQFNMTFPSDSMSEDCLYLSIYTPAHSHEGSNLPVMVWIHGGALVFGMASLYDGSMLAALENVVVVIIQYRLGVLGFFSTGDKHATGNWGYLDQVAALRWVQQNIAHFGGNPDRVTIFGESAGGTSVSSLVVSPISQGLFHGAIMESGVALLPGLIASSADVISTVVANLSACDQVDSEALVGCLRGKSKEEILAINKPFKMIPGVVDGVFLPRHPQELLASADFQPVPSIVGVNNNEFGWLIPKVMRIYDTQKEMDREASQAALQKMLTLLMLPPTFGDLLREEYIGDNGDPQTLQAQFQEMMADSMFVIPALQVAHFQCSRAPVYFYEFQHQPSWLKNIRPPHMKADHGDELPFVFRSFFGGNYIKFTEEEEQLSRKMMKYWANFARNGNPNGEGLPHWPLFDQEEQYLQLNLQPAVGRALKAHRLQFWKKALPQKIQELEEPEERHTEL
- MEASUREMENT_NOTES: hCE2 inhibition assay (FD hydrolysis in human liver microsomes)
- Assay type: biochemical
- PARTICULARS: ratio of IC50 values, hCE2 over hCE1 selectivity (fold)
EXPERIMENTAL_READOUT: Selectivity IC50(hCE1)/IC50(hCE2)

Solved cases below.
# COMPOUND, Selectivity IC50(hCE1)/IC50(hCE2)
records = [
    ("COc1cc(COc2cc(-c3cc4ccc(OC)c(OC)c4c4[n+]3C(OC)CO4)ccc2OC)cc(OC)c1 (stereo not shown) [Compound 23o]", ">83.89"),
    ("COc1ccc(-c2cc3ccc(OC)c(OC)c3c3[n+]2C(OC)CO3)cc1OCc1ccc(C(C)C)cc1 (stereo not shown) [Compound 23n]", ">60.31"),
    ("COc1ccc(-c2cc3ccc(OC)c(OC)c3c3[n+]2C(OC)CO3)cc1OCc1ccc(C#N)cc1 (stereo not shown) [Compound 23g]", ">30.07"),
]

Now take the following compound into account.
Q: Give Selectivity IC50(hCE1)/IC50(hCE2) for COc1ccc(COc2cc(-c3cc4ccc(OC)c(OC)c4c4[n+]3C(OC)CO4)ccc2OC)cc1 (stereo not shown) [Compound 23d]
A: >14.52
